- Test system: NCI-H23 lung
- test_description: NCI-60 one-dose screen, 48 h
- condition_description: 10 µM unless noted
About 83,000 compounds went through this panel and 20% of them were active in at least one assay; those are over-represented in the sample as a whole. Calls of active or inactive are those of the source. The calls were made as follows: active = growth percent below 10; inactive = the rest.
Hello, when you answer, please use one of the following outcomes: active, inactive

Example cases with answers are listed next.
molecule	assayed_target	class_assignment
O=C(Cn1c[n+](CC(=O)c2ccc([N+](=O)[O-])cc2)c2ccccc21)Nc1cccc2cccnc12	NCI-H23 lung	inactive
Cc1cccc(C)c1N=c1oc2ccc(Cl)cc2nc1-c1ccccc1O	NCI-H23 lung	inactive
O=C(/C=C(/C=C/c1coc2ccccc12)OB(F)F)/C=C/c1coc2ccccc12	NCI-H23 lung	inactive
O=C1Nc2ccc(F)cc2/C1=C\c1c(-c2ccccc2)nc2ccccn12	NCI-H23 lung	inactive
O=C(CCN1CCCC1)c1ccc([N+](=O)[O-])cc1	NCI-H23 lung	inactive

Outcome logged for `C/C(=N\NC(=O)CSc1nc2ccccc2c(=O)n1Cc1ccc(S(N)(=O)=O)cc1)c1ccc(F)cc1` in this assay:
inactive

Outcome logged for `Cc1cnc(C(=O)Nc2nc3ccc(S(=O)(=O)Nc4ccc(C5(C(F)(F)F)CC5)cc4)cc3[nH]2)cn1` in this assay:
inactive

Outcome logged for CCN(CC)CCOc1ccc(NC(=O)C(C(C)C)N2C(=O)/C(=C/c3ccc(Br)cc3)SC2=S)cc1 (stereo unspecified) in this assay:
inactive

----------
- Test system: OVCAR-5 ovarian
- test_description: NCI-60 one-dose screen, 48 h (100 = growth as untreated, 0 = no growth, -100 = all killed)
- condition_description: 10 µM unless noted
The panel holds about 83,000 compounds, 20% with a hit somewhere; the sample as a whole holds those more often.
measurement_label: growth (%)
One number for each entry, in %.

compound	measurement_label	measurement
Cc1ccc(NS(=O)(=O)c2ccc(-c3cnc(C4CC4)o3)cc2)cc1C(F)(F)F	growth	93.2
Oc1ccc(C2c3ccccc3Oc3ccccc32)c2cccnc12	growth	44.9
c1ccc2c(-c3nccs3)c[nH]c2c1	growth	97.3
Cc1cc2c(c(C)c1Cl)C(=O)/C(=C/c1ccc(O)c(O)c1)O2	growth	117
O=C1Nc2ccccc2/C1=C\c1c(-c2ccc(F)cc2)nc2ccccn12	growth	77.5
O=C(Cc1ccc(/C=C/C(=O)c2nccs2)cc1)Nc1ccccc1	growth	99.9
Nc1c(C(=O)Nc2cccc3cnccc23)sc2nc3c(cc12)CN(Cc1ccccc1)CC3	growth	105
COc1cc2nc(-c3ccc(Cl)cc3)cc(OCCCN3CCCCC3)c2cc1OC	growth	49.3
O=C1NN(C(=O)c2ccccc2)C(c2ccc(Cl)c(Cl)c2)=C/C1=C\c1ccc([N+](=O)[O-])cc1	growth	113

Note: attention shifts to another entry.
Look up growth for this compound: OC(c1ccc(F)c(C(F)(F)F)c1)c1cnccc1NC1CCCCC1 (stereo not given)
85.3

----------
- Test system: PC-3 prostate
- test_description: NCI-60 one-dose screen, 48 h (100 = growth as untreated, 0 = no growth, -100 = all killed)
- condition_description: 10 µM unless noted
This is part of a sample that, as a whole, favours compounds with a hit. Of some 83,000 tested, about 20% had one in any assay.
Threshold 80%: growth strictly smaller gives true (1), otherwise false (0).

compound	class_assignment
C=C1C(=O)O[C@H]2[C@H]1CC/C(CNC(=O)/C=C/c1ccccc1)=C\CC[C@@]1(C)O[C@@H]21	true (1)
COc1cccc(-c2nc3occn3c2-c2ccnc(NCCNS(=O)(=O)c3ccc(C(F)(F)F)cc3)n2)c1	true (1)
CCCCC[n+]1ccc(SCC(=O)N(C)c2ccc(Oc3ccccc3)cc2)c2ccccc21	false (0)
c1ccc(-c2cn3c(ccc4ccccc43)n2)cc1	true (1)
O=S(=O)(NCCNc1nccc(-c2c(-c3cccc(F)c3)nc3sccn23)n1)c1ccc(Br)cc1	true (1)

Quick check: growth of COc1cc(C2C3=C(COC3=O)N(CCO)c3cc4c(cc32)OCO4)cc(OC)c1OC (centres undefined) under 80%?
true (1)

Quick check: growth of `COc1cc(/C=C2\COc3ccc(-c4ccccc4)cc3C2=O)cc(OC)c1` under 80%?
true (1)

Quick check: growth of `CCCCCN1C=C/C(=C\C(=O)n2ccc3ccccc32)c2ccccc21` under 80%?
false (0)

----------
Consider the following molecules; for each one, report its growth.
- System: CAKI-1 renal
- test_description: NCI-60 one-dose screen, 48 h (100 = growth as untreated, 0 = no growth, -100 = all killed)
- condition_description: 10 µM unless noted
Compounds without any hit were thinned out: in the full panel of roughly 83,000, 20% have a hit.
Numbers only, in %.

Examples with their reported growth follow.
molecule	assayed_target	measurement
CCCCCN1C=C/C(=C\C(=O)N2CCCc3ccccc32)c2ccccc21	CAKI-1 renal	80.3
COc1ccc(C(=O)Nc2cccc(C3CCc4c(cc(OC)c(OC)c4OC)O3)c2)cc1 (centres undefined)	CAKI-1 renal	54.3
COc1ccc(/C=C/c2nc(Nc3cccc(NC(C)=O)c3)c3ccccc3n2)cc1	CAKI-1 renal	67.4

Batch: growth for all items listed.
1. COc1cc2cc(CN3CCN(c4nccc(-c5ccc6ccccc6c5)n4)CC3)c(=O)[nH]c2cc1OC
2. Brc1ccc2[nH]cc(-c3cncn3CCc3ccccc3)c2c1

1. 99.5
2. 35.4

Batch: growth for all items listed.
1. OCc1cnccc1NCCCCOc1ccc(Oc2ccccc2)cc1
2. Nc1nc(Nc2ccccc2SSc2ccccc2Nc2nc(N)nc(-c3ccc(C(F)(F)F)cc3)n2)nc(-c2ccc(C(F)(F)F)cc2)n1
3. CN1C(N2CCN(S(=O)(=O)c3ccccc3)CC2)=NS(=O)(=O)c2ccccc21
4. CCCCC/C=C/C(C)=C/C1CC(C)C/C=C/CCC(O)C(OC(N)=O)CCC(C)CC(O)C(C)C(=O)O1 (centres undefined)

1: 70.7; 2: -20.3; 3: 104; 4: 78.9

----------
- Tested on: M14 melanoma
- test_description: NCI-60 one-dose screen, 48 h (100 = growth as untreated, 0 = no growth, -100 = all killed)
- condition_description: 10 µM unless noted
This is part of a sample that, as a whole, favours compounds with a hit. Of some 83,000 tested, about 20% had one in any assay.
Threshold 70%: growth strictly smaller gives True, otherwise False.

molecule	class_assignment
CCN(CC)CCCC(C)Nc1cc(O)cc2cccnc12 (stereo not drawn)	False
Cn1ccnc1C(=O)/C=C/c1ccc(CC(=O)Nc2ccc(Cl)cc2)cc1	True
OCc1cnccc1NCCCOc1ccccc1	False
CNC(=O)c1cccc(Cn2nc(C)c(NC(=O)c3ccc(COc4ccc(C(F)(F)F)cc4C)cc3)c2C)c1	True

Quick check: growth of `COc1ccc(/C=C/c2nc(Nc3ccc(Cl)cc3)c3ccccc3n2)cc1` under 70%?
True

Quick check: growth of CC(c1ccccc1)C(C(=O)c1ccccc1)c1ccccc1 (stereo not drawn) under 70%?
False

Quick check: growth of `Cn1cc(-c2csc(-c3c[nH]c4ccccc34)n2)c2ccnc(Cl)c21` under 70%?
True

Quick check: growth of `Cc1cc2c(c(C)c1Cl)C(=O)/C(=C/c1ccc(O)c(O)c1)O2` under 70%?
False

Quick check: growth of `CCN(CC)c1ccc(/C=N/NC(=O)CSc2nc3ccccc3c(=O)n2Cc2ccc(S(N)(=O)=O)cc2)c(O)c1` under 70%?
True

Quick check: growth of `CC(C)(C)c1cc(C=O)cc(C(C)(C)C)c1O` under 70%?
False

Quick check: growth of `N#Cc1c(NC(=O)NCc2ccccc2)sc2c1CCCCC2` under 70%?
True

Quick check: growth of `N=C(N)c1ccc(OCCCCCCCCCCOc2ccc(C(=N)N)cc2)cc1` under 70%?
True

----------
- System: KM12 colon
- test_description: NCI-60 one-dose screen, 48 h (100 = growth as untreated, 0 = no growth, -100 = all killed)
- condition_description: 10 µM unless noted
The panel holds about 83,000 compounds, 20% with a hit somewhere; the sample as a whole holds those more often.
measurement_label: growth (%)
One number for each entry, in %.

Examples with their reported growth follow.
molecule	assayed_target	growth (%)
COc1ccc(Cc2cnc(NC(=O)c3ccc4c(c3)OCCO4)s2)cc1	KM12 colon	10.3
COc1ccc2c(c1)C(=O)CC(c1ccccc1OC)O2 (stereo unspecified)	KM12 colon	102

Batch: growth for all items listed.
1. CCc1ccc(-c2cn3ccnc3c(-c3ccc4ncn(Cc5ccccc5)c4c3)n2)cc1
2. Cn1ccc2c1CC1CN(Cc3ccco3)C(=O)C1C2C(=O)O (stereo unspecified)
3. COc1cc(NCCCCCNC(C)(C)C)c2ncccc2c1
4. N#CC1=C(N)Oc2c(ccc3ccccc23)C1c1ccccc1Cl (stereo unspecified)

[54.3, 101, 95.4, 12.8]

----------
- System: NCI-H23 lung
- test_description: NCI-60 one-dose screen, 48 h (100 = growth as untreated, 0 = no growth, -100 = all killed)
- condition_description: 10 µM unless noted
About 83,000 compounds went through this panel and 20% of them were active in at least one assay; those are over-represented in the sample as a whole.
measurement_label: growth (%)
Give bare numbers, in %.

compound	measurement_units	growth
CCCCCC(=O)Oc1ccc(/C(=C(\C)c2ccccc2)c2ccc(OCCN3CCCCC3)cc2)cc1	%	74.9
O=Cc1ccc(-c2cn3ccnc3c(-c3ccc4ncn(Cc5ccccc5)c4c3)n2)cc1	%	45.5
N#Cc1c(-c2ccccc2)nc2c(c(-c3ccccc3)nn2-c2ccccc2)c1-c1ccc(O)cc1	%	44.1

Batch: growth for all items listed.
1. COc1cccc(-c2nc3occn3c2-c2ccnc(NCCNS(=O)(=O)c3cccc4ccccc34)n2)c1
2. OCc1cnc2ccccc2c1NC1CCCCCC1
3. Cn1cc(-c2nc(-c3c[nH]c4c(Cl)nccc34)cs2)c2cc(Br)ccc21
4. S=c1cc(S)c2cc(Br)ccc2[nH]1
5. Nc1c(C(=O)Nc2cccc3cnccc23)sc2nc3c(cc12)C(=O)CCC3
6. CC(Sc1nc2ccccc2c(=O)n1CCc1ccc(S(N)(=O)=O)cc1)C(=O)Nc1ccc(Cl)cc1 (stereo not given)

[103, 77.4, 99.8, 81.5, 92.6, 79.5]

Batch: growth for all items listed.
1. O=C(Nc1ccc(F)cc1)Nc1ccc(NC(=O)c2cc(Cl)nc3ccccc23)cc1
2. COc1ccccc1/C=C1\Oc2cc(OCCN3CCCC3)ccc2C1=O
3. O=S(=O)(Nc1ccc(-n2cnc3cc(-c4ccc(O)cc4)ccc32)cc1)c1ccccc1
4. CCCOC(=O)N[C@H]1CCc2c(Cl)c(OC)c(OC)c(OC)c2-c2ccc(SC)c(=O)cc21
5. C#CCNC(=O)[C@]1(C)CC[C@]2(C)CC[C@@H]3C(=CC[C@H]4[C@@]3(C)CC[C@H]3C(C)(C)C(=O)CC[C@]43C)[C@@H]2C1
6. N/C(=N\C(N)=N\c1nc2ccccc2s1)c1ccnc(Br)c1
7. O=C(Nc1ccccc1C(=O)N/N=C(\c1ccccc1)c1ccccn1)c1ccc(F)cc1

1. 69.2
2. 82.8
3. 99.8
4. 26.8
5. 91
6. 44.5
7. 28.2

Batch: growth for all items listed.
1. N#C/C(=C\c1ccc(C(F)(F)F)cc1)c1cc2ccccc2[nH]1
2. COc1ccc(C(=O)CSc2nc(-c3cc(OC)ccc3OC)cc(-c3ccc(Cl)cc3)c2C#N)cc1
3. Cc1ccc(S(=O)(=O)NNC(=O)/C(=C\c2ccc(Cl)cc2)c2nc3ccccc3s2)cc1
4. COc1ccc(C(=O)c2nc3ccccc3n2CC(=O)c2ccc(F)cc2)cc1

[98.1, 44.1, 96.4, 88.4]

All values here come from PubChem BioAssay (NCI).
